The reported measurements were obtained from the supplement of paper PMC10567573.

B1: GFOD1 (parent)
chain: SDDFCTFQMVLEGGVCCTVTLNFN

- Variants of: B1
- Protocol Notes: protein stability index of a GFP-peptide fusion (GPS, HEK-293T) (PSI 1-6); higher = more stable;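 note: lentivirally expressed fusions sorted by FACS into six bins by GFP to DsRed ratio, PSI derived from sequencing read proportions per bin multiplied by bin number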
- Assay Conditions: c terminus: a fixed tail appended
The reader will find reported protein stability index values listed item by item below.

>  <Seq>
SDDFCTFQMVLEGGVCCCVTLNFN [T18C]

>  <protein stability index>
2.71

$$$$
>  <Seq>
SDDFCTFQTVLEGGVCCTVTLNFN [M9T]

>  <protein stability index>
3.09

$$$$
>  <Seq>
SDDFCTFQMVLVGGVCCTVTLNFN [E12V]

>  <protein stability index>
3.03

$$$$
>  <Seq>
SDDECTFQMVLEGGVCCTVTLNFN [F4E]

>  <protein stability index>
1.81

$$$$
>  <Seq>
SDDFCTFQMVLEGGVCCTVHLNFN [T20H]

>  <protein stability index>
2.03

$$$$
>  <Seq>
SDDFCTFQMVLEGGVCNTVTLNFN [C17N]

>  <protein stability index>
2.77

$$$$
>  <Seq>
SDDFCGFQMVLEGGVCCTVTLNFN [T6G]

>  <protein stability index>
2.51

$$$$
>  <Seq>
SDDFCTFQMVLEGGVCCTWTLNFN [V19W]

>  <protein stability index>
2.61

$$$$
>  <Seq>
SEDFCTFQMVLEGGVCCTVTLNFN [D2E]

>  <protein stability index>
3.11

$$$$
>  <Seq>
SDDFCFFQMVLEGGVCCTVTLNFN [T6F]

>  <protein stability index>
2.48

$$$$
>  <Seq>
SDDFCTFQMVLEGGVCCTVTLNDN [F23D]

>  <protein stability index>
2.19

$$$$
>  <Seq>
SDDFITFQMVLEGGVCCTVTLNFN [C5I]

>  <protein stability index>
3.26

$$$$
>  <Seq>
SDDFCTFQMVLEPGVCCTVTLNFN [G13P]

>  <protein stability index>
2.92

$$$$
>  <Seq>
SDDFCTFQMVLEGGVCCTSTLNFN [V19S]

>  <protein stability index>
2.07

$$$$
>  <Seq>
SDDFCTFQMVLEGGVCCTETLNFN [V19E]

>  <protein stability index>
2.11

$$$$
>  <Seq>
SDDFCTFQMVLEGGVCCTVYLNFN [T20Y]

>  <protein stability index>
1.97

$$$$
>  <Seq>
SDDFCTFMMVLEGGVCCTVTLNFN [Q8M]

>  <protein stability index>
3.81

$$$$
>  <Seq>
SDDFCMFQMVLEGGVCCTVTLNFN [T6M]

>  <protein stability index>
3.02

$$$$
>  <Seq>
SLDFCTFQMVLEGGVCCTVTLNFN [D2L]

>  <protein stability index>
3.05

$$$$
>  <Seq>
SDDFCTFQMVLEGGVCTTVTLNFN [C17T]

>  <protein stability index>
3.25

$$$$
>  <Seq>
SDDFCTFQWVLEGGVCCTVTLNFN [M9W]

>  <protein stability index>
2.28

$$$$
>  <Seq>
SDDFCTWQMVLEGGVCCTVTLNFN [F7W]

>  <protein stability index>
2.67

$$$$
>  <Seq>
SDDFCTFQMVLEVGVCCTVTLNFN [G13V]

>  <protein stability index>
2.5

$$$$
>  <Seq>
SDDFCTFQMVLEGGVCATVTLNFN [C17A]

>  <protein stability index>
2.49

$$$$
>  <Seq>
SDDFCTFQMVLEGGVCCNVTLNFN [T18N]

>  <protein stability index>
2.33

$$$$
>  <Seq>
SDDFCTFQMVLEGGVCCVVTLNFN [T18V]

>  <protein stability index>
3.91

$$$$
>  <Seq>
SDDFCTFQMVLEGGVCCAVTLNFN [T18A]

>  <protein stability index>
3.01

$$$$
>  <Seq>
SDDFCTFQMVLEGGVCCTVTLNFC [N24C]

>  <protein stability index>
2.91

$$$$
>  <Seq>
SDDFCDFQMVLEGGVCCTVTLNFN [T6D]

>  <protein stability index>
3.22

$$$$
>  <Seq>
SDDFCTNQMVLEGGVCCTVTLNFN [F7N]

>  <protein stability index>
1.63

$$$$
>  <Seq>
SDDFCTFQMVLEGGVCCTVTLNFR [N24R]

>  <protein stability index>
3.43

$$$$
>  <Seq>
SDDFCTKQMVLEGGVCCTVTLNFN [F7K]

>  <protein stability index>
1.93

$$$$
>  <Seq>
SDDFCTFQMVLEGGVCCYVTLNFN [T18Y]

>  <protein stability index>
2.44

$$$$
>  <Seq>
SMDFCTFQMVLEGGVCCTVTLNFN [D2M]

>  <protein stability index>
1.27

$$$$
>  <Seq>
SDVFCTFQMVLEGGVCCTVTLNFN [D3V]

>  <protein stability index>
3.3

$$$$
>  <Seq>
SDDFCTFQMVLEGAVCCTVTLNFN [G14A]

>  <protein stability index>
2.87

$$$$
>  <Seq>
SDDFCTFQMVLEGGVCCTVTYNFN [L21Y]

>  <protein stability index>
1.69

$$$$
>  <Seq>
SDDFCTFQMVLEGGVQCTVTLNFN [C16Q]

>  <protein stability index>
2.45

$$$$
>  <Seq>
SDNFCTFQMVLEGGVCCTVTLNFN [D3N]

>  <protein stability index>
2.68

$$$$
>  <Seq>
SDDFCTFQMVLEGGVCCTVTLCFN [N22C]

>  <protein stability index>
3.25

$$$$
>  <Seq>
SDDFCTVQMVLEGGVCCTVTLNFN [F7V]

>  <protein stability index>
1.98

$$$$
>  <Seq>
SDDFCTFQMVLNGGVCCTVTLNFN [E12N]

>  <protein stability index>
3.79

$$$$
>  <Seq>
SDDKCTFQMVLEGGVCCTVTLNFN [F4K]

>  <protein stability index>
1.77

$$$$
>  <Seq>
SDDFCTFEMVLEGGVCCTVTLNFN [Q8E]

>  <protein stability index>
2.71

$$$$
>  <Seq>
SDDFCTEQMVLEGGVCCTVTLNFN [F7E]

>  <protein stability index>
2.03

$$$$
>  <Seq>
MDDFCTFQMVLEGGVCCTVTLNFN [S1M]

>  <protein stability index>
2.15

$$$$
>  <Seq>
SDDFCTFQMFLEGGVCCTVTLNFN [V10F]

>  <protein stability index>
4.27

$$$$
>  <Seq>
SDDFCTFQMVLEGDVCCTVTLNFN [G14D]

>  <protein stability index>
3.01

$$$$
>  <Seq>
SDDFCTFQKVLEGGVCCTVTLNFN [M9K]

>  <protein stability index>
1.8

$$$$
>  <Seq>
SNDFCTFQMVLEGGVCCTVTLNFN [D2N]

>  <protein stability index>
3.57

$$$$
>  <Seq>
SDDFCTFQMVLWGGVCCTVTLNFN [E12W]

>  <protein stability index>
2.6

$$$$
>  <Seq>
SDDFCTFQMVVEGGVCCTVTLNFN [L11V]

>  <protein stability index>
3.22

$$$$
>  <Seq>
SDDFCTFQAVLEGGVCCTVTLNFN [M9A]

>  <protein stability index>
2.43

$$$$
>  <Seq>
SDDFCTFQMVLEFGVCCTVTLNFN [G13F]

>  <protein stability index>
2.3

$$$$
>  <Seq>
SDDDCTFQMVLEGGVCCTVTLNFN [F4D]

>  <protein stability index>
2.46

$$$$
>  <Seq>
SYDFCTFQMVLEGGVCCTVTLNFN [D2Y]

>  <protein stability index>
3.72

$$$$
>  <Seq>
SDDFCTFQQVLEGGVCCTVTLNFN [M9Q]

>  <protein stability index>
1.55

$$$$
>  <Seq>
STDFCTFQMVLEGGVCCTVTLNFN [D2T]

>  <protein stability index>
3.29

$$$$
>  <Seq>
SDDFCEFQMVLEGGVCCTVTLNFN [T6E]

>  <protein stability index>
2.56

$$$$
>  <Seq>
SDDFCTFQMVYEGGVCCTVTLNFN [L11Y]

>  <protein stability index>
3.1

$$$$
>  <Seq>
SDDFCTFQMVLEGGVCCTHTLNFN [V19H]

>  <protein stability index>
2.41

$$$$
>  <Seq>
SDDFCTFQMVLEGGVCVTVTLNFN [C17V]

>  <protein stability index>
1.89

$$$$
>  <Seq>
SDDFCTFQMVLEGGVCCTVMLNFN [T20M]

>  <protein stability index>
2.71

$$$$
>  <Seq>
SDDFCTFQMVLTGGVCCTVTLNFN [E12T]

>  <protein stability index>
1.99

$$$$
>  <Seq>
SDDFCTHQMVLEGGVCCTVTLNFN [F7H]

>  <protein stability index>
2.26

$$$$
>  <Seq>
SDDFCTFQVVLEGGVCCTVTLNFN [M9V]

>  <protein stability index>
2.59

$$$$
>  <Seq>
SDDFCTFQPVLEGGVCCTVTLNFN [M9P]

>  <protein stability index>
1.27

$$$$
>  <Seq>
SDDFCTFQMVLEGGVCCTVTLNGN [F23G]

>  <protein stability index>
2.44

$$$$
>  <Seq>
SDDFCTFQMVLEGGVCCTVTGNFN [L21G]

>  <protein stability index>
2.41

$$$$
>  <Seq>
SDDFCTFQMVLEGGVCCTVTLNLN [F23L]

>  <protein stability index>
2.8

$$$$
>  <Seq>
SDDFCTFQMVLEGGQCCTVTLNFN [V15Q]

>  <protein stability index>
2.94

$$$$
>  <Seq>
SDDFCTFQMVLEGGVCCGVTLNFN [T18G]

>  <protein stability index>
3.96

$$$$
>  <Seq>
SDDFCTFQMVLGGGVCCTVTLNFN [E12G]

>  <protein stability index>
3.33

$$$$
>  <Seq>
SDDFCTFQMVLEGGVCCTVTLNPN [F23P]

>  <protein stability index>
1.56

$$$$
>  <Seq>
SDDFCTFQMVLEGGRCCTVTLNFN [V15R]

>  <protein stability index>
3.84

$$$$
>  <Seq>
ADDFCTFQMVLEGGVCCTVTLNFN [S1A]

>  <protein stability index>
3.07

$$$$
>  <Seq>
SDDFCTFQMVLEGGVCCTPTLNFN [V19P]

>  <protein stability index>
2.12

$$$$
>  <Seq>
SQDFCTFQMVLEGGVCCTVTLNFN [D2Q]

>  <protein stability index>
3.58

$$$$
>  <Seq>
SDDFCTFQMTLEGGVCCTVTLNFN [V10T]

>  <protein stability index>
2.36

$$$$
>  <Seq>
SDDFCTFQMVLEGGVTCTVTLNFN [C16T]

>  <protein stability index>
3.75

$$$$
>  <Seq>
SDDFCTFQCVLEGGVCCTVTLNFN [M9C]

>  <protein stability index>
2.77

$$$$
>  <Seq>
SDDFCTFQMVLEGGVCCTVTLYFN [N22Y]

>  <protein stability index>
2.33

$$$$
>  <Seq>
SDDFCTFQMVLIGGVCCTVTLNFN [E12I]

>  <protein stability index>
2.56

$$$$
